B1: Osa-1-4 twister ribozyme (parent)
chain: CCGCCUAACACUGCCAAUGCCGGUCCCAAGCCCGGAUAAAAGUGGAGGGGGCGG

Variants of: B1
Assay: self-cleavage, relative activity (ratio to wild type); higher = more cleavage; co-transcriptional
# self-cleavage annotations

Variant description	self-cleavage
A39U C21U	0.99
A28U A7C	0.04
G42A U12G	0.09
A8C G49A	0.02
C11A U43G	0.56

For reference, reported self-cleavage for C14U G51U stands at 0.05

Short answer for C14A G13C : self-cleavage was 0.02
